- Test Name: chemical genetic growth profiling, strain panel (AID 1159580);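 note: tested at 20 µM; growth read once vehicle control cultures reached saturation at 30 °C; 1 = growth at the plate median or of vehicle wells; lower values mean less growth of the strain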
- Condition Notes: S. cerevisiae deletion strains, growth OD, locus YKL068W, active compounds read low
Out of some 5,500 compounds screened, about 2,000 (36%) were called active. Another 18% or so got no clear call; they are omitted. The list shows a part of the results.
Readout Label: normalized growth
Hey, just send me the number, nothing else.

Could you share which normalized growth value was measured for COc1ccc2oc(-c3ccccc3)c(OC)c(=O)c2c1 ?
0.96

====

Recorded normalized growth, one value per entry.
- Test Name: chemical genetic growth profiling, strain panel (AID 1159580);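 note: tested at 20 µM; growth read once vehicle control cultures reached saturation at 30 °C; 1 = growth at the plate median or of vehicle wells; lower values mean less growth of the strain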
- Condition Notes: S. cerevisiae deletion strains, growth OD, locus YGR135W, strain pre9, active compounds read low
Hit rate of the full screen: of about 5,500 compounds, about 2,000 (36%) were called active. About 18% were inconclusive and are not listed. This is one part of the list.
Hey, just send me the number, nothing else.

Cc1nnc(NS(=O)(=O)c2ccc(N)cc2)s1    1

--- query ---
Could you share which normalized growth value was measured for COc1ccc2oc3ccccc3c(=O)c2c1 ?
0.811

====

- Test Name: chemical genetic growth profiling, strain panel (AID 1159580);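 note: tested at 20 µM; growth read once vehicle control cultures reached saturation at 30 °C; 1 = growth at the plate median or of vehicle wells; lower values mean less growth of the strain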
- Condition Notes: S. cerevisiae deletion strains, growth OD, locus YLR039C, strain RIC1, active compounds read low
Out of some 5,500 compounds screened, about 2,000 (36%) were called active. Another 18% or so got no clear call; they are omitted. Some of the results follow.
Class (by normalized growth) -- bottom range (below 0.9), center range (0.9 to below 1), top range (1 or more)

Check out these entries, answers already filled in.
N[C@@H](C(=O)O)[C@@H](O)[C@H](O)[C@H](O)CO    top range
Cn1c(=S)[nH]c2cc(C(F)(F)F)ccc21    bottom range
COC1C=CC23c4cc5c(cc4CN(CC2O)[C@@H]3C1)OCO5 (some centres not stated)    top range
CC(=O)NCCc1c[nH]c2ccc(O)cc12    center range
CN=C(N)NCCCC(N)C(=O)O (configuration not stated)    top range
Brc1cccc(C=NCc2ccccc2)c1    bottom range
FC(F)(F)c1ccc2[nH]c(=S)[nH]c2c1    center range
Cc1nn(Cc2ccccc2Cl)c(=N)s1    center range
CC(=O)O[C@]1(C)CC[C@@]23CC1C(C)(C)[C@@H]2CC[C@H]3C    bottom range
C[C@@H]1CC[C@H]2C(C)(C)C3CC12CC[C@@]3(C)O (some centres not stated)    bottom range

Which bin should I file Cc1onc2c(=O)n(-c3ccccc3)nc(-c3ccccc3)c12 under?
bottom range

What do we get for CC(C)c1nc(N(C)S(C)(=O)=O)nc(-c2ccc(F)cc2)c1/C=C/[C@@H](O)C[C@@H](O)CC(=O)O ?
top range

What do we get for O=C(O)C(O)C(O)C(O)C(O)C(=O)O (configuration not stated) ?
top range

What do we get for OC[C@H]1O[C@@H](n2cnc3c(NCc4ccco4)ncnc32)[C@H](O)[C@@H]1O ?
top range

What do we get for Cc1nnc(NS(=O)(=O)c2ccc(N)cc2)s1 ?
top range

====

Recorded normalized growth, one value per entry.
- Test Name: chemical genetic growth profiling, strain panel (AID 1159580);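 note: tested at 20 µM; growth read once vehicle control cultures reached saturation at 30 °C; 1 = growth at the plate median or of vehicle wells; lower values mean less growth of the strain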
- Condition Notes: S. cerevisiae deletion strains, growth OD, locus YDR335W, strain msn5, active compounds read low
The whole screen tested about 5,500 compounds, of which about 2,000 (36%) were called active. Roughly 18% stayed inconclusive and do not appear here. This is one part of the list.
Hey, just send me the number, nothing else.

Use the examples below as a reference point.
C=CCS(=O)C[C@H](N)C(=O)O (stereo partly specified)    0.991
NCC[C@@H](O)C(=O)N[C@@H]1C[C@H](N)[C@@H](O[C@H]2O[C@H](CN)[C@@H](O)[C@H](O)[C@H]2O)[C@H](O)[C@H]1O[C@H]1O[C@H](CO)[C@@H](O)[C@H](N)C1O (stereo partly specified)    1.04
CC(=O)O[C@H]1C[C@@]2(C)[C@@H](C[C@@H](O)C3[C@]2(C)CC[C@H]2[C@H](C)[C@H](O)CC[C@]32C)/C1=C(/CCC=C(C)C)C(=O)O (stereo partly specified)    1.04
CC[C@@H]1OC(=O)C[C@@H](O)[C@H](C)[C@@H](O[C@@H]2O[C@H](C)[C@@H](O)[C@H](N(C)C)[C@H]2O)[C@@H](CCN2C[C@H](C)C[C@H](C)C2)C[C@@H](C)C(=O)/C=C/C(C)=C\[C@@H]1CO[C@@H]1O[C@H](C)[C@@H](O)[C@@H](OC)[C@H]1OC    1.01
O=C(O)CCC1NCC2CC1CN1CCCCC21 (stereo unspecified)    0.969

--- query ---
Could you share which normalized growth value was measured for Oc1c(Cl)cc(Cl)c(Cl)c1Cc1c(O)c(Cl)cc(Cl)c1Cl ?
0.061
